// provenance: paper PMC12089509

Assay: MTT cytotoxicity assay on MCF7
Assay type: cell-based
Settings: human, MCF7 cells, MCF7, 50 μg/mL, read-out: Cytotoxicity (% cell viability)
Recorded viability at 72 h, 50 µg/mL, one value per entry.
The answer is to be given in %; state only the numeric part.

Consider the reported viability at 72 h, 50 µg/mL for these compounds:
[
  {
    "compound": "CN1c2c(-c3ccc(Cl)cc3)n[nH]c2-c2ccccc2S1(=O)=O",
    "viability at 72 h, 50 µg/mL, %": 7
  },
  {
    "compound": "O=[N+]([O-])c1ccc(-n2nc(-c3ccc(Cl)cc3)c3c2-c2ccccc2S(=O)(=O)N3)cc1 [Compound 1, reference compound]",
    "viability at 72 h, 50 µg/mL, %": 50
  }
]

# get_value(readout='viability at 72 h, 50 µg/mL', item= O=S1(=O)Nc2c(-c3ccc(Cl)cc3)nn(-c3ccccc3)c2-c2ccccc21 )
88

* * *

Assay: MTT cytotoxicity assay on A549
Assay type: cell-based
Conditions: human, A549 cells, A549, 100 μg/mL, read-out: Cytotoxicity (% cell viability)
Quick reference: viability at 72 h, 100 µg/mL of the listed items.
Answer in %, number only, no unit symbol.

# example entries with known answers
[
  {
    "compound": "O=S1(=O)Nc2c(-c3ccc(Cl)cc3)nn(-c3ccccc3)c2-c2ccccc21 [Compound 3]",
    "measured-attribute": "viability at 72 h, 100 µg/mL",
    "value": 34
  },
  {
    "compound": "O=[N+]([O-])c1ccc(-n2nc(-c3ccc(Cl)cc3)c3c2-c2ccccc2S(=O)(=O)N3)cc1 [Compound 1, reference compound]",
    "measured-attribute": "viability at 72 h, 100 µg/mL",
    "value": 8
  }
]

Which viability at 72 h, 100 µg/mL value is on record for CN1c2c(-c3ccc(Cl)cc3)n[nH]c2-c2ccccc2S1(=O)=O [Compound 10] ?
7

* * *

Target: S. aureus NorA efflux pump (SA-1199B strain, overexpresses the norA gene) (Staphylococcus aureus, UniProt P0A0J7)
Construct: endogenous in cells; host or cells: S. aureus SA-1199B (overexpresses norA; isogenic parent SA-1199)
Sequence (P0A0J7 whole entry): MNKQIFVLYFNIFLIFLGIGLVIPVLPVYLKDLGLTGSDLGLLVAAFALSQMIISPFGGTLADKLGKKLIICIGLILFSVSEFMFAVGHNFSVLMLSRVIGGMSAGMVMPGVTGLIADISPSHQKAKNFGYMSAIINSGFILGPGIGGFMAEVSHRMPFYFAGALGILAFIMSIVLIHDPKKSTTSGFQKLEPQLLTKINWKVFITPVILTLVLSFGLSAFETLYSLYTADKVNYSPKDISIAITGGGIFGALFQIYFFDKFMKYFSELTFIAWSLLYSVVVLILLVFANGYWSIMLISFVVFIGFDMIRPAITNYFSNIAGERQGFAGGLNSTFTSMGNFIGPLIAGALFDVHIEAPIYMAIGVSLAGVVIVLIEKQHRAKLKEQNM
Assay: EtBr efflux inhibition assay
Type: cell-based
Settings: read-out: EtBr efflux inhibition (%), compound at 10 µM, SA-1199B
Quick list: inhibition at 10 µM per entry.
Could you give me the number in %? Just the number is fine.

Which inhibition at 10 µM is reported for this molecule? CN1c2c(-c3ccc(F)c(Cl)c3)n[nH]c2-c2ccccc2S1(=O)=O
0

# input molecule: CN1c2c(-c3ccc(F)cc3)nn(C)c2-c2ccc(OCCN3CCCCC3)cc2S1(=O)=O ; wanted: its inhibition at 10 µM
33

Give the measured inhibition at 10 µM of CN1c2c(-c3ccc(F)cc3)nn(C)c2-c2ccc(OCCN3CCOCC3)cc2S1(=O)=O .
34

Recorded inhibition at 10 µM of CN1c2c(-c3ccc(F)cc3)n[nH]c2-c2ccccc2S1(=O)=O , please.
22

* * *

System: S. aureus SA-K1902 (norA-)
Test: Checkerboard assay EPI/CPX against SA-K1902
Format: cell-based, Staphylococcus aureus
Conditions: EPI at 0.8 µg/mL
measured-attribute: CPX MIC (µg/mL)
State the answer as a number, implicitly in µg/mL.

# get_value(readout='CPX MIC', item= CN1c2c(-c3ccc(Cl)cc3)n[nH]c2-c2ccccc2S1(=O)=O )
0.08

Suppose we examine the compound O=S1(=O)Nc2c(-c3ccc(Cl)cc3)nn(-c3ccccc3)c2-c2ccccc21 ; what CPX MIC value has been reported?
0.08

Which value of CPX MIC has been reported for CN1c2c(-c3ccc(F)cc3)nn(C)c2-c2ccc(OCCN3CCOCC3)cc2S1(=O)=O in the records?
0.08

For O=[N+]([O-])c1ccc(-n2nc(-c3ccc(Cl)cc3)c3c2-c2ccccc2S(=O)(=O)N3)cc1 [Compound 1, reference compound] , what is its reported CPX MIC?
0.15

* * *

Assay read-out MIC; system under study: S. aureus SA-K1902 (norA-).
I only need the number, in µg/mL, no unit after it.

[
  {
    "compound": "O=[N+]([O-])c1ccc(-n2nc(-c3ccc(Cl)cc3)c3c2-c2ccccc2S(=O)(=O)N3)cc1 [Compound 1, reference compound]",
    "endpoint-unit": "µg/mL",
    "value": 12.5
  }
]

// next entry
Notebook entry, S. aureus SA-K1902 (norA-) assay: MIC of CN1c2c(-c3ccc(Cl)cc3)n[nH]c2-c2ccccc2S1(=O)=O = ?
12.5

* * *

Target: S. aureus NorA efflux pump (SA-1199B strain, overexpresses the norA gene) (Staphylococcus aureus, UniProt P0A0J7)
Construct: endogenous in cells; host or cells: S. aureus SA-1199B (overexpresses norA; isogenic parent SA-1199)
Test: EtBr efflux inhibition assay
Assay type: cell-based
Conditions: read-out: EtBr efflux inhibition (%), compound at 50 µM, SA-1199B
# inhibition at 50 µM listing for each entry below

// known answers, use as guide
[
  {
    "compound": "CN1c2c(-c3ccc(Cl)cc3)nn(CCN3CCCCC3)c2-c2ccccc2S1(=O)=O [Compound 18]",
    "inhibition at 50 µM": "> 70%"
  },
  {
    "compound": "CN1c2c(-c3ccc(F)cc3)nn(C)c2-c2ccc(OCCN3CCOCC3)cc2S1(=O)=O [Compound 19]",
    "inhibition at 50 µM": "> 70%"
  },
  {
    "compound": "CN1c2c(-c3ccc(F)cc3)nn(C)c2-c2ccc(OCCN3CCCCC3)cc2S1(=O)=O [Compound 20]",
    "inhibition at 50 µM": "> 70%"
  }
]

Tell me the measured inhibition at 50 µM of CN1c2c(-c3ccccc3)n[nH]c2-c2ccccc2S1(=O)=O [Compound 11] , please.
< 70%

* * *

Reported inhibition at 50 µM values are given for each entry in this list.
Target: S. aureus NorA efflux pump (SA-1199B strain, overexpresses the norA gene) (Staphylococcus aureus)
Construct: endogenous in cells; host or cells: S. aureus SA-1199B (overexpresses norA; isogenic parent SA-1199)
Experiment: EtBr efflux inhibition assay
Type: cell-based
Conditions: read-out: EtBr efflux inhibition (%), compound at 50 µM, SA-1199B
Quick note: unit goes after the number.

Known results for compounds:
[
  {
    "structure-smiles": "O=S1(=O)c2ccccc2-c2[nH]nc(-c3ccc(F)cc3)c2N1CCCO",
    "inhibition at 50 µM": "17%"
  },
  {
    "structure-smiles": "Cc1cc(-c2ccccc2NS(C)(=O)=O)n(-c2ccccc2)n1",
    "inhibition at 50 µM": "0%"
  }
]

Item O=S1(=O)Nc2c(-c3ccc(Cl)cc3)n[nH]c2-c2ccccc21 has what recorded inhibition at 50 µM?
12%

What measured inhibition at 50 µM goes with CNCCN1c2c(-c3ccc(F)cc3)n[nH]c2-c2ccccc2S1(=O)=O ?
57%

I'd like to know its inhibition at 50 µM. The compound in question is CN1c2c(-c3ccc(F)cc3)n[nH]c2-c2ccccc2S1(=O)=O
87%

Suppose we examine the compound CCN(CC)CCOC1=C(C(=O)c2ccc(F)cc2)N(C)S(=O)(=O)c2ccccc21 ; what inhibition at 50 µM value has been reported?
36%
